# experimental.system: Human chymase (Homo sapiens)
Note to self: IC50 under 20 nM means 1.0, ties and anything higher get 0.0.

- molecule: "Cc1cccc2[nH]cc(Cc3c(-c4ccc5ccccc5c4C(=O)O)nc4ccccn34)c12"
  class.label: 1.0
- molecule: "Cc1cccc2scc(Cc3c(SCCCC(=O)O)nc4ccccn34)c12 [Comparative Compound 2, reference compound]"
  class.label: 0.0
- molecule: "Cc1cccc2c1c(Cn1c(Sc3ccccc3C(=O)O)nc3ccccc31)cn2C [Comparative Compound 4, reference compound]"
  class.label: 0.0

Does Cc1ccc2nc(-c3ccccc3C(=O)O)c(Cc3cn(C)c4cccc(C)c34)n2c1 have IC50 strictly under 20 nM?
0.0

How about O=C(O)c1ccccc1Sc1nc2ccccc2n1Cc1cccc2ccccc12 [Comparative Compound 3, reference compound] ?
0.0

====

# experimental.system: Human chymase (Homo sapiens)
# Sequence (P23946 22-247): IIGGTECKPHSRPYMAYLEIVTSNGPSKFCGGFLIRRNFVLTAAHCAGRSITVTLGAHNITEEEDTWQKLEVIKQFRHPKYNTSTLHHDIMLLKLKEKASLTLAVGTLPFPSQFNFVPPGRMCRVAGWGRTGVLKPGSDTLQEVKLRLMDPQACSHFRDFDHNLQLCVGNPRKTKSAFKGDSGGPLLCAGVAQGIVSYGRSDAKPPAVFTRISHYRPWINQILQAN
One threshold, 2 nM, splits the recorded IC50 values: lower ones are 1, equal or higher ones are -1.

Worked examples, 2 compounds total:
- query.smiles: "CCn1cc(Cc2c(-c3ccccc3C(=O)O)nc3ccccn23)c2c(C)cccc21"
  class.label: -1
- query.smiles: "Cc1cccc2c1c(Cc1c(-c3ccccc3C(=O)O)nc3ccccn13)cn2C"
  class.label: -1

Strictly below 2 nM: is that where IC50 of Cc1c(F)ccc2[nH]cc(Cc3c(-c4ccccc4C(=O)O)nc4ccccn34)c12 sits?
-1

Item: Cc1cccc2[nH]cc(Cc3c(-c4ccc5ccccc5c4C(=O)O)nc4ccc(F)cn34)c12
1
